Assay explanation: Therapeutic study: hematological parameters; further: test concentration or dose not given here
Assay type: in vivo, Wistar strain albino rats
Condition set: HFD discontinued, day 0; unit assumed
Readout kind: Eosinophil (%)
The reply should be a number in %, with the unit left off.

*Q* Tell me the measured Eosinophil of CC(C)c1c(C(=O)Nc2ccccc2)c(-c2ccccc2)c(-c2ccc(F)cc2)n1CC[C@@H](O)C[C@@H](O)CC(=O)O [Statin, Atorvastatin] , please.
*A* 1.25

* * *

Assay explanation: Therapeutic study: hematological parameters; further: test concentration or dose not given here
Assay type: in vivo, Wistar strain albino rats
Condition set: HFD continued, day 0; unit assumed
Readout kind: Eosinophil (%)
The reply should be a number in %, with the unit left off.

*Q* Tell me the measured Eosinophil of `CC(C)c1c(C(=O)Nc2ccccc2)c(-c2ccccc2)c(-c2ccc(F)cc2)n1CC[C@@H](O)C[C@@H](O)CC(=O)O` , please.
*A* 1.25

The reported measurements were obtained from patent US20230270804A1.
